Target: T1, type I interferon receptor (UniProt P17181 28-557; P48551 27-515, limits assumed)
T1 sequence (looked up) 1: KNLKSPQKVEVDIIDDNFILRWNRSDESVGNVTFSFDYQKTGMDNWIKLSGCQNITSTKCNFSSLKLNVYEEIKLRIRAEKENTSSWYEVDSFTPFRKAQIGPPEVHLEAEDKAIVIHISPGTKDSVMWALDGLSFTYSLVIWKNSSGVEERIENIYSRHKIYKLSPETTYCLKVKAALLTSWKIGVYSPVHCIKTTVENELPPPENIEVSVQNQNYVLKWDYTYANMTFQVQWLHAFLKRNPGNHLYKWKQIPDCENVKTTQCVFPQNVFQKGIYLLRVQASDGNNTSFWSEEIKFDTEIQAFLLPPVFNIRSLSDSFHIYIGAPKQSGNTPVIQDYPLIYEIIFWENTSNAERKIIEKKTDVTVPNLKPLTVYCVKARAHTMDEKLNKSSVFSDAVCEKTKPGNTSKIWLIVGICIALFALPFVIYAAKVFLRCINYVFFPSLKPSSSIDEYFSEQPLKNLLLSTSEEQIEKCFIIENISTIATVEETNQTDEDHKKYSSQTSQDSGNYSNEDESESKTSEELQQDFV
T1 sequence (looked up) 2: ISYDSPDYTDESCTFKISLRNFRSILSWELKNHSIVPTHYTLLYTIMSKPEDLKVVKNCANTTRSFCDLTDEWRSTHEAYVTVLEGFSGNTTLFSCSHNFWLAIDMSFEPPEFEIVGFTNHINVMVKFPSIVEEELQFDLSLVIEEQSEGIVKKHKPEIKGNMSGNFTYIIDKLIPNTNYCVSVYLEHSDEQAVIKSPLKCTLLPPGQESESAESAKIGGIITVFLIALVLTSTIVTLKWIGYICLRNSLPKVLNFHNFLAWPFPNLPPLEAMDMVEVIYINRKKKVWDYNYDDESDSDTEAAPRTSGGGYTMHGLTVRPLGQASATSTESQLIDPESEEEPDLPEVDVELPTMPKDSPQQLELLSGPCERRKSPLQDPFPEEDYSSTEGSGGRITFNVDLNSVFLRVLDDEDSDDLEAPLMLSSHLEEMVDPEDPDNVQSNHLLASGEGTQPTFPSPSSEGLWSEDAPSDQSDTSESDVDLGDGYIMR
Assay: cell-based or functional assay
Measured EC50, ISRE-luciferase reporter assay in 293T cells, listed per entry.
Field: numeric (log ng/ml). Do not append units.

# annotated cases, reported EC50, ISRE-luciferase reporter assay in 293T cells shown
>>> result("IFB1_2 (ligand) MGSSHHHHHHSSGLVPRGSHMSYNQLGFLQRSSNFQSQKLLWQLNGRLEYCLKDRMNFDIPEEIKQLQQFQKEDAALTIYEMLQNIFAIFRQDSSSTGWNETIVENLLANVYHQINHLKTVLEEKLEKEDFTRGKLMSSLHLKRYYGRILHYLKAKEYSHCAWTIVRVEILRNFYFINRLTGYLRN")
0.428
>>> result("IFB1_39 (ligand) MGSSHHHHHHSSGLVPRGSHMSYNQLGELQRSSNFQSQKLLWQLNGRLEYCLKDRMNFDIPEEIKQLQQFQKEDAALTIYEMLQNIFAIFRQDSSSTGWNETIVENLLANVYHQINHLKTVLEEKLEKEDNTRGKEMSSLHLKRYYGRILHYLKAKEYSHCAWTIVRVEILRNFYFINRLTGYLRN")
0.193

Quick one: EC50, ISRE-luciferase reporter assay in 293T cells of IFB1_23 (ligand) MGSSHHHHHHSSGLVPRGSHMSYNQLGELQRSSNFQSQKLLWQLNGRLEYCLKDRMNFDIPEEIKQLQQFQKEDAALTIYEMLQNIFAIFRQDSSSTGWNETIVENLLANVYHQINHLKTVLEEKLEKEDFTRGKEMSSLHLKRYYGRILHYLKAKEYSHCAWTIVRVEILRNFYFINRLTGYLRN ? 0.277
